# assay_explanation: self-splicing fitness, log relative to wild type (ln ratio); higher = more splicing; Tetrahymena group I intron in knt gene, E. coli kanamycin selection, DiMSum; sequences stand for … in CUCUCU…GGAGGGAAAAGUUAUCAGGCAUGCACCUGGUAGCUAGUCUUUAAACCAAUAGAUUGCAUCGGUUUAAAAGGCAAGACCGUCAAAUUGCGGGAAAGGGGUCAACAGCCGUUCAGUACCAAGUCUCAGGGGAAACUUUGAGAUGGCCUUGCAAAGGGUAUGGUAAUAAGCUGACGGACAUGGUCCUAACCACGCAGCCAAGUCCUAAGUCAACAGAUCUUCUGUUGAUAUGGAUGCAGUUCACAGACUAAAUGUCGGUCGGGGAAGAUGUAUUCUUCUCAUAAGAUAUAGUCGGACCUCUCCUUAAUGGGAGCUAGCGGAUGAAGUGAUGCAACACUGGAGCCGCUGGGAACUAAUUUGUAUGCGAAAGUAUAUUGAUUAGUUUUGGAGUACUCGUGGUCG;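 further: selection with 25 µg/mL kanamycin versus none on LB agar overnight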
# measurement_context: 37 °C
result_type: self-splicing fitness (ln)

In [3]: df
Out[3]:
       ordered_residues  test_value
0  AACCAGCAAUAUUACGUGUC       -1.42
1  ACACAGCAAUAUUACGCGUG       -1.68
2  CGUAAGCAAUAUUACGCGAC       -2.63

----------
# assay_explanation: self-splicing fitness, log relative to wild type (ln ratio); higher = more splicing; Tetrahymena group I intron in knt gene, E. coli kanamycin selection, DiMSum; sequences stand for … in CUCUCU…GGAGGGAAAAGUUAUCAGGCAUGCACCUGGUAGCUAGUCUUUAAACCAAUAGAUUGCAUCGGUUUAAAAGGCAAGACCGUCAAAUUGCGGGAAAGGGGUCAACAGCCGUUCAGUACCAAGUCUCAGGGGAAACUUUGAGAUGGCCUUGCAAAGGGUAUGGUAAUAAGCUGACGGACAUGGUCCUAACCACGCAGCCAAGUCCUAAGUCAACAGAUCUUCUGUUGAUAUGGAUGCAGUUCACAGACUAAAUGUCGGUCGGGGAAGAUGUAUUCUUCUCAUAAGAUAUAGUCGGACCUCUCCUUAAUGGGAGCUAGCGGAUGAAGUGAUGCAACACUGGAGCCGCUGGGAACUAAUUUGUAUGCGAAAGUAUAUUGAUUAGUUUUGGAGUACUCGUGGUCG
# measurement_context: 30 °C
Lab note: anything with self-splicing fitness (ln) at or over -3 counts as MET; the rest go in NOT MET.

>>> df
        ordered_residues  label_value
 0  UGUCAGCAAUAUUACGGGCC          MET
 1  CGGUAGCAAUAUUACGAUAC          MET
 2  CCGGAGCAAUAUUACGUUGG      NOT MET
 3  AGGCAGCAAUAUUACGUCCG          MET
 4  CUGAAGCAAUAUUACGAUCA          MET
 5  GAUAAGCAAUAUUACGGCGU          MET
 6  UAACAGCAAUAUUACGAGAU      NOT MET
 7  ACAAAGCAAUAUUACGCAAC          MET
 8  GAUCAGCAAUAUUACGACUU          MET
 9  GCAUAGCAAUAUUACGUUCA          MET
10  AACUAGCAAUAUUACGUUCA          MET
11  ACGUAGCAAUAUUACGUCAA      NOT MET
12  GGGCAGCAAUAUUACGUCUU          MET
13  UGCGAGCAAUAUUACGUUGU          MET
14  AGCCAGCAAUAUUACGGGGU      NOT MET
15  AAGCAGCAAUAUUACGAACU          MET
16  AAUUAGCAAUAUUACGUGGU      NOT MET
17  AGCAAGCAAUAUUACGUGGA          MET
18  GAACAGCAAUAUUACGGCAG          MET
19  GGAUAGCAAUAUUACGUAGG          MET
20  UAAGAGCAAUAUUACGGUUA          MET
21  AGCUAGCAAUAUUACGGGAC      NOT MET
22  UCCGAGCAAUAUUACGUCCG          MET
23  AUCUAGCAAUAUUACGAGUG          MET
24  CUAGAGCAAUAUUACGCAGC      NOT MET
25  GGGUAGCAAUAUUACGGUGA          MET
26  CUCCAGCAAUAUUACGCUGG          MET
27  CGAGAGCAAUAUUACGGUAC      NOT MET
28  AGUUAGCAAUAUUACGGUUU          MET
29  GCUGAGCAAUAUUACGAAUU          MET
30  GUAUAGCAAUAUUACGGCUA          MET

----------
# assay_explanation: self-splicing fitness, log relative to wild type (ln ratio); higher = more splicing; Tetrahymena group I intron in knt gene, E. coli kanamycin selection, DiMSum; sequences stand for … in CUCUCU…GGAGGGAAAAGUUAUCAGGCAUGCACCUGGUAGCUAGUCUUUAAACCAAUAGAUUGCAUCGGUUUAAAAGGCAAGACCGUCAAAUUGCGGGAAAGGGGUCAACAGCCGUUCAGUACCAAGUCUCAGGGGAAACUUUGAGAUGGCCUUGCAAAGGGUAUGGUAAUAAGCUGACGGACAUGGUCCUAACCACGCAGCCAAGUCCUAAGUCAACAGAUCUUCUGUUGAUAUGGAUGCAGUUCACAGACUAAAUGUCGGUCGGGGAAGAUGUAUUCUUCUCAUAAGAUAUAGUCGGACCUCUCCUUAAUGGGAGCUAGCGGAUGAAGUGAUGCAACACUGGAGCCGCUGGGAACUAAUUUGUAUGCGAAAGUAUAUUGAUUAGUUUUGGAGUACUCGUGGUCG
# measurement_context: 30 °C
result_type: self-splicing fitness (ln)

In [3]: df
Out[3]:
        ordered_residues  test_value
 0  AAUGAGCAAUAUUACGGCCU       -1.17
 1  CUGAAGCAAUAUUACGUUGC       -4.09
 2  UGUGAGCAAUAUUACGAGUA       -2.16
 3  CGGAAGCAAUAUUACGUCAU       -3.78
 4  UGUUAGCAAUAUUACGAAUU       -1.44
 5  CUUAAGCAAUAUUACGGCGC       -3.46
 6  CCUGAGCAAUAUUACGACUU       -3.87
 7  ACCUAGCAAUAUUACGCUGG       -4.07
 8  UUGCAGCAAUAUUACGUAGC       -2.96
 9  ACUAAGCAAUAUUACGGGUG      -0.981
10  AGUCAGCAAUAUUACGUAAA       -1.71
11  UCGAAGCAAUAUUACGAACG       -1.82
12  CUAGAGCAAUAUUACGGUUG      -0.207
13  CGAAAGCAAUAUUACGUUUA       -1.99
14  AGACAGCAAUAUUACGGCCC      -0.119
15  ACCUAGCAAUAUUACGGGGA       -1.11
16  UUCAAGCAAUAUUACGCACA      -0.531
17  UCAAAGCAAUAUUACGGUUC       -4.38
18  AAGCAGCAAUAUUACGCAUA       -2.01
19  CCAGAGCAAUAUUACGUUCU       -3.71
20  CUAGAGCAAUAUUACGCAUG      -0.244
21  GGACAGCAAUAUUACGACCU      -0.544
22  UCCCAGCAAUAUUACGUCCA       -1.51
23  UGCCAGCAAUAUUACGUGAC       -3.43
24  AACAAGCAAUAUUACGCCCA     -0.0653
25  AUUAAGCAAUAUUACGUAGG       -2.34
26  GUGCAGCAAUAUUACGAGUU       -2.49

----------
# assay_explanation: self-splicing fitness, log relative to wild type (ln ratio); higher = more splicing; Tetrahymena group I intron in knt gene, E. coli kanamycin selection, DiMSum; sequences stand for … in CUCUCU…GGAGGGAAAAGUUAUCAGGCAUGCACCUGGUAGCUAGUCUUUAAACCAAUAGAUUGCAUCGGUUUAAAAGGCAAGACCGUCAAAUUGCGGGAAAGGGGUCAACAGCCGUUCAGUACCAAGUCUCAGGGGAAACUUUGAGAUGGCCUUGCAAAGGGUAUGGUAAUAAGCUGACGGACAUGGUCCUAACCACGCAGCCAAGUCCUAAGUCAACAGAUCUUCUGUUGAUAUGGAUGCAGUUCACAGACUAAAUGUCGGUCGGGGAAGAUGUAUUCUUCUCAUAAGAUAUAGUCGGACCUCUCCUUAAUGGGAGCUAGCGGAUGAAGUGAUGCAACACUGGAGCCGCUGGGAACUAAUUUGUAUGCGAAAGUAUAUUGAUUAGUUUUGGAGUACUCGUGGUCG
# measurement_context: 30 °C
Catalogue of sequences with associated self-splicing fitness (ln)
result_type: self-splicing fitness (ln)

        ordered_residues  test_value
 0  CCGGAGCAAUAUUACGCUGG       -1.99
 1  GAAAAGCAAUAUUACGUUAU       -1.67
 2  UCACAGCAAUAUUACGACGC       -2.07
 3  GUUGAGCAAUAUUACGUGCA       -1.65
 4  AAAGAGCAAUAUUACGAUUC        -2.3
 5  GUUGAGCAAUAUUACGAGGG        -2.7
 6  UUACAGCAAUAUUACGCCGG      -0.726
 7  GGCGAGCAAUAUUACGACGG       -3.28
 8  UGCGAGCAAUAUUACGUGUU       -3.58
 9  ACCAAGCAAUAUUACGAAAG       -3.27
10  GAGCAGCAAUAUUACGGCGA       -1.21
11  GAUUAGCAAUAUUACGGUCG       -1.28
12  UAGGAGCAAUAUUACGGGUA       -1.45
13  GCUCAGCAAUAUUACGAAUG       -1.59
14  GUUAAGCAAUAUUACGAUUC      0.0872
15  UGCUAGCAAUAUUACGUUGG        -3.3
16  AGGUAGCAAUAUUACGAUCA      -0.205
17  UUGAAGCAAUAUUACGUUUG        -1.6
18  AGUAAGCAAUAUUACGGGCG       -0.68
19  ACACAGCAAUAUUACGCGCG      -0.558
20  GCGGAGCAAUAUUACGGGGA       -2.69
21  CUUUAGCAAUAUUACGGCGG      -0.763
22  UUAUAGCAAUAUUACGGUGU       -3.63
23  AGAGAGCAAUAUUACGACUA       -2.42
24  ACCUAGCAAUAUUACGAUGG       -3.01
25  AACGAGCAAUAUUACGAACA       -3.15
26  CCGGAGCAAUAUUACGAGUC       -3.15
27  UGUGAGCAAUAUUACGGGCU      -0.671
28  AAUCAGCAAUAUUACGUAAG      -0.572
29  CCAAAGCAAUAUUACGUCAG       -1.64
30  CUUCAGCAAUAUUACGUCGC       -2.22
31  UCCCAGCAAUAUUACGGUGU      -0.353
32  AGGGAGCAAUAUUACGAUCU       -2.71
33  UCGAAGCAAUAUUACGGGUA      -0.839
34  CUUCAGCAAUAUUACGGUUU        -3.8
35  AGACAGCAAUAUUACGCAGU       -3.96
